Every entry's value here was drawn from the supplement of paper PMC5412046.

Test system: SB.msgc-1
Assay: AC50 for growth inhibition (viability) (log10 M); higher = less potent
Conditions: SB.msgc-1 (sporadic gastric cancer)
Each entry below carries its reported AC50 for growth inhibition (log10 M).
PARAMETER MEASURED: AC50 for growth inhibition (log10 M)

COMPOUND	TARGET OF ASSAY	RESULT VALUE
O=C1c2c(O)cc(O)cc2O[C@H](c2cc(O)c(O)c(O)c2)[C@H]1O [Dihydromyricetin]	SB.msgc-1	-5.23
CC[C@@H]1C(=O)N(C)c2cnc(Nc3ccc(C(=O)NC4CCC(N5CCN(CC6CC6)CC5)CC4)cc3OC)nc2N1C(C)C (some centres not stated) [Volasertib]	SB.msgc-1	-7.03
CNC(=O)c1cc(Oc2ccc(NC(=O)Nc3ccc(Cl)c(C(F)(F)F)c3)cc2)ccn1 [Sorafenib]	SB.msgc-1	-4.98
CN(C)CC(=O)N1CCC(CC1)C2=CC=C(NC(=O)C3=NC(=C[NH]3)C#N)C(=C2)\C4=C\CCCC4	SB.msgc-1	-5.23
Cc1c(C(=O)NN2CCCCC2)nn(-c2ccc(Cl)cc2Cl)c1-c1ccc(Cl)cc1 [Rimonabant]	SB.msgc-1	-4.63
CC/1=C(\O)C(=O)\C=C2/C1=C/C=C3\[C@@]2(C)CC[C@@]4(C)[C@@H]5C[C@@](C)(CC[C@]5(C)CC[C@]34C)C(O)=O [Tripterin]	SB.msgc-1	-5.78
CN(C)c1ccc(C(=O)NCCCCCCC(=O)NO)cc1 [M344]	SB.msgc-1	-6.08
